The reported measurements were obtained from patent US20240417436A1.

- MEASUREMENT_TARGET: T1, IL-2 receptor βγ complex on pan T cells (human, UniProt P14784 27-551; P31785 23-369)
- T1 sequence (looked up) 1: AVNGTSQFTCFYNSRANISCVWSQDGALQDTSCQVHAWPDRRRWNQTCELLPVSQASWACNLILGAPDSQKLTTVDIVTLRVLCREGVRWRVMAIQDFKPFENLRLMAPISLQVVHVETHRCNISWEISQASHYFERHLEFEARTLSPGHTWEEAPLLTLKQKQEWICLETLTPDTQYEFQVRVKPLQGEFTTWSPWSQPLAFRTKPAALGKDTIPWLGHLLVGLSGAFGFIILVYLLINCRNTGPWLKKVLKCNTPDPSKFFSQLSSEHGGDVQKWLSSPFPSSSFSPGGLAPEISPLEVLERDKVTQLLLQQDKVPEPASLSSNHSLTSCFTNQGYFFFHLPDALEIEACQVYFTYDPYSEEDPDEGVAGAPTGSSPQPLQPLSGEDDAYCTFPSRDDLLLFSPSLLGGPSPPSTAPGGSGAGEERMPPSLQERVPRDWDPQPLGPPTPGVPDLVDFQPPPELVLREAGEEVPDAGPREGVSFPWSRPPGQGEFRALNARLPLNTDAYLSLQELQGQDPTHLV
- T1 sequence (looked up) 2: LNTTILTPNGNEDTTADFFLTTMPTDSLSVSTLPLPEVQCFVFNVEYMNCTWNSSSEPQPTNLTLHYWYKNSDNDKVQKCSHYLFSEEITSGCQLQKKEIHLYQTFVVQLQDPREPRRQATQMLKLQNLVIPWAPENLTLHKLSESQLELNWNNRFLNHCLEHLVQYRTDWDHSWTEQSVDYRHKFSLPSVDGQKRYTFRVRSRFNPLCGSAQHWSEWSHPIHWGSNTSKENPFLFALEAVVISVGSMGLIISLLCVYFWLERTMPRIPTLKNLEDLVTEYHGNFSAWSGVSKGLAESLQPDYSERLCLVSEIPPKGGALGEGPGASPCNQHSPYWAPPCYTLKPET
- ASSAY_COMMENT: cell-based or functional assay
Bridges are numbered along the chain shown (N, C = ends). [ ]: non-standard residue; d: D form. Ygp = O-(8x polyethylene glycol-amino)-tyrosine; Yn3 = O-(9x polyethylene glycol-azido)-tyrosine; hSer = N[C@@H](CCO)C(=O)O; Nle = CCCC[C@H](N)C(=O)O
EXPERIMENTAL_ENDPOINT: Average EC50, pSTAT5 assay in pan T cells, intact molecule

{"columns": ["BINDER", "DATA_VALUE"],
 "data": [
  ["CMP-301 (ligand, bridge N-23; not fully specified (N-terminus, bridges); ends not checked; also: cleavable peptide of the bridge not defined) APTSSSTKKTQLQLEHLLLDLQEILNGINNYKNPKLTR[Nle]L[hSer][Yn3]KF[Ygp][Nle]PKKATELKHLQCLEEELKPLEEVL[hSer]LAQSKNFHLRPRDLISNINVIVLELKGSETTF[hSer]CEYADETATIVEFLNRWITFSQSIISTLT", "180 nM"],
  ["CMP-302 (ligand, lactam N-30; ends not checked) GPLGLAGAPTSSSTKKTQLQLEHLLLDLQEILNGINNYKNPKLTR[Nle]L[hSer][Yn3]KF[Ygp][Nle]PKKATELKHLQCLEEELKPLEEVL[hSer]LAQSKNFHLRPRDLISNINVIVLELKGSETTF[hSer]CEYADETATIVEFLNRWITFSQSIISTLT", "63.4 nM"],
  ["CMP-300 (ligand, bridge N-23; not fully specified (N-terminus, bridges); ends not checked; also: cleavable peptide of the bridge not defined) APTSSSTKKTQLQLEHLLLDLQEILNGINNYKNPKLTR[Nle]L[hSer][Yn3]KF[Ygp][Nle]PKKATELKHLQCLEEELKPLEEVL[hSer]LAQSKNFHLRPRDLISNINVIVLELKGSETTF[hSer]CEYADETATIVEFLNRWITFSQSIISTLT", "94.7 nM"]
]}
